assay: AUC (0 to 8 hrs) in Crl:CD (SD) rat at 100 mg/kg, po after 0.5 to 8 hrs; format: ADME, organism-based; design: time < 8 hr, dose 100 mg/kg, route oral; conditions: plasma
measurementType: AUC(0-t) at 8 h (ng·h/mL)

COc1cc(-c2cc(=O)c3c(O)cc(O)cc3o2)cc(OC)c1OC(=O)N[C@@H](C)C(=O)N[C@@H](CCC(=O)O)C(=O)O ... 10300

---

assay: Cmax in Crl:CD (SD) rat at 300 mg/kg, po after 0.5 to 8 hrs by RP-HPLC; type: ADME, organism-based; design: dose 300 mg/kg, route oral; conditions: in vivo
measurementType: Cmax (ng/mL)

COc1cc(-c2cc(=O)c3c(O)cc(O)cc3o2)cc(OC)c1OC(=O)N[C@@H](C)C(=O)N[C@@H](CCC(=O)O)C(=O)O ... 2870

---

assay: AUC (0 to 8 hrs) in Crl:CD (SD) rat at 300 mg/kg, po after 0.5 to 8 hrs; assay type: ADME, organism-based; set-up: time < 8 hr, dose 300 mg/kg, route oral; details: plasma
measurementType: AUC(0-t) at 8 h (ng·h/mL)

COc1cc(-c2cc(=O)c3c(O)cc(O)cc3o2)cc(OC)c1OC(=O)N[C@@H](C)C(=O)N[C@@H](CCC(=O)O)C(=O)O ... 15100
